- Tested on: Rattus norvegicus
- ASSAY: Dose required to produce a 50% increase in blood flow to the autoperfused hindquarters of the anesthetized normotensive rat
- Format: functional
Field: ED50. Provide a value for each of the compounds that follow.
Output spec: scalar in µmol/kg, unitless text.

Prompt line: Which ED50 is listed for "C[C@@H]1CC(=O)NN=C1c1ccc(NC(=O)CCNC[C@H](O)COc2ccc(CCOCC3CC3)cc2)cc1" ?
Response line: 1

Prompt line: Now the same for "C[C@@H]1CC(=O)NN=C1c1ccc(NC(=O)CCNC[C@@H](O)COc2ccc(CCOCC3CC3)cc2)cc1"
Response line: 0.9

Prompt line: Now the same for CC1CC(=O)NN=C1c1ccc(NC(=O)CCNCC(O)COc2ccc(CCOCC3CC3)cc2)cc1 (stereo not given)
Response line: 1.6
